Values from patent US11174232B2

- system: CDK7/CycH/MNAT1 (Homo sapiens (Human), UniProt P50613)
- Sequence (P50613 whole entry): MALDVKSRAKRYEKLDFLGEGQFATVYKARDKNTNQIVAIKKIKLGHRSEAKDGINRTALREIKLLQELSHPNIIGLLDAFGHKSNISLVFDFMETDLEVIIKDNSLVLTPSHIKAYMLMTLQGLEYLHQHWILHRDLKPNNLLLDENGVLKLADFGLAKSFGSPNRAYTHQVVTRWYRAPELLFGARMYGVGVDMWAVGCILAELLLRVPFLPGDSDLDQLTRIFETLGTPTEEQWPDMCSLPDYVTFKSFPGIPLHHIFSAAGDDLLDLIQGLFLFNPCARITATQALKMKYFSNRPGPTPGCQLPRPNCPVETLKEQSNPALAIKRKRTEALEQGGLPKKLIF
- Sequence (P51946 whole entry partner): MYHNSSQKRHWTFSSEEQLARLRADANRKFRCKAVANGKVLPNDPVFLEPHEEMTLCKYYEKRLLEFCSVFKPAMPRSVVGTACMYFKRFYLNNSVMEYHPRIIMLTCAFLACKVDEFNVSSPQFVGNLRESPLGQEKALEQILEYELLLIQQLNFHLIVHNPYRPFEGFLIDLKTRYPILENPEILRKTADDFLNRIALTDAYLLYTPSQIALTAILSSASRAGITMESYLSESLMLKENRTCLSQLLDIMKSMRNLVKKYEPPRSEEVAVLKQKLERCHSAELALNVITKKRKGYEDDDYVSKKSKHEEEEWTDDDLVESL
- Sequence (P51948 whole entry partner): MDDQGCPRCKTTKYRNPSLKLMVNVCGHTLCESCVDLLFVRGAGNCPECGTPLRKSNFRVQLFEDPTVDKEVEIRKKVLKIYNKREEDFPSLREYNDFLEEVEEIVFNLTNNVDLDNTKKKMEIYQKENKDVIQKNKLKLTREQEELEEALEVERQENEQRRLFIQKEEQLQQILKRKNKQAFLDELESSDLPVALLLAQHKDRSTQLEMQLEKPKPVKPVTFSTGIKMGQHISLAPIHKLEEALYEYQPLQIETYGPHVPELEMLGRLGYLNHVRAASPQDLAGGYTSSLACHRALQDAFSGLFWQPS
- experiment-description: Biochemical Assay for CDK7 (TR-FRET kinase assay)
- measurement-setup: 60 min pre-incubation with kinase; 1 mM ATP
pIC50: −log10 of the molar value.
measured-property: pIC50

# compound, system, measured-property, reported
measured = [
    ("C=CC(=O)Nc1ccc(-c2cccc(C(C)C(=O)Nc3cc(CC)[nH]n3)c2)cc1 (centres unmarked)", "CDK7/CycH/MNAT1 (Homo sapiens (Human), UniProt P50613)", "pIC50", "< 7.00"),
    ("C=CC(=O)Nc1ccc(-c2cccc(C(C)C(=O)Nc3cc(C4CC4)[nH]n3)c2)c(C)c1 (centres unmarked)", "CDK7/CycH/MNAT1 (Homo sapiens (Human), UniProt P50613)", "pIC50", "< 7.00"),
    ("CCN(CC)C/C=C/C(=O)Nc1ccc(-c2cccc(C(C)C(=O)Nc3cc(C4CC4)[nH]n3)c2)cc1F (centres unmarked)", "CDK7/CycH/MNAT1 (Homo sapiens (Human), UniProt P50613)", "pIC50", "> 7.60"),
    ("C=CC(=O)Nc1ccc(-c2cccc(C(C)C(=O)Nc3n[nH]c4ccccc34)c2)cc1 (centres unmarked)", "CDK7/CycH/MNAT1 (Homo sapiens (Human), UniProt P50613)", "pIC50", "< 7.00"),
    ("C=CC(=O)Nc1ccc(-c2cccc(C(C)C(=O)Nc3cc(C(C)(C)C)[nH]n3)c2)cc1 (centres unmarked)", "CDK7/CycH/MNAT1 (Homo sapiens (Human), UniProt P50613)", "pIC50", "< 7.00"),
]

Input line: Please report the recorded pIC50 for COC[C@@H]1CCCN1C/C=C/C(=O)Nc1ccc(-c2cccc(C(C)C(=O)Nc3cc(C4CC4)[nH]n3)c2)cn1 (single isomer, unassigned) [Compound 72] .
Output line: > 7.60
